Test: inducers of Vibrio cholerae quorum light production without autoinducers, primary screen, BH1578 luxS cqsA deficient, single point (AID 588436)
Conditions: V. cholerae BH1578 lux reporter, luminescence, 6 h, at 18.7 µM
Among all 350,000 compounds or so, about 550 (0.16%) were called active. No stated cut-off is given here; in the data, active means activation mostly above about 9.7% (no sharp cut-off); inconclusive means no clear call, values can overlap the other calls; inactive means mostly below about 3.7%. This is one part of a sample in which actives are shown more often than they occur.
Please reply with one of these outcomes: Y for active, N for inactive

Give the logged outcome of this assay for the following molecule: `Cc1oc2cc3oc(=O)ccc3cc2c1C` N

Please share the test call associated with `CCN(CC(=O)NCc1ccc(Cl)cc1)C(=O)CSc1ccccc1` . Y

Hi, do you know how CC(NC(=O)COC(=O)C1CCN(S(=O)(=O)c2ccccc2C(F)(F)F)CC1)c1ccccc1 (centres undefined) came out in this test? N

Assay outcome for `COc1ccc(CNS(=O)(=O)c2ccc(NC(=O)N3CCCCC3)cc2)cc1` : what was it? N

* * *

The following compounds are shown together with reported activation values.
Test: inducers of Vibrio cholerae quorum light production without autoinducers, primary screen, BH1578 luxS cqsA deficient, single point (AID 588436)
Conditions: V. cholerae BH1578 lux reporter, luminescence, 6 h, at 18.7 µM; hits give high values
The whole screen tested about 350,000 compounds, of which about 550 (0.16%) were called active. This is one part of a sample in which actives are shown more often than they occur.
Reply numerically in %, unit not repeated.

The following compounds have reported results that may help.
>  <compound>
CCOC(=O)c1c(-c2cccc(N)c2)cn2ccccc12

>  <endpoint_name>
activation

>  <recorded_number>
-1.18

$$$$
>  <compound>
NC(=O)c1nsc(C(=O)N(CC(=O)NCc2ccc(F)cc2)Cc2ccco2)c1N

>  <endpoint_name>
activation

>  <recorded_number>
25

$$$$

Shifting focus to the compound that follows.
Endpoint output: activation of Cc1sc2nc(COC(=O)C(NC(=O)c3ccc(Cl)cc3Cl)C(C)C)[nH]c(=O)c2c1C (stereo not drawn) . Value? -0.176

* * *

Test: inducers of Vibrio cholerae quorum light production without autoinducers, primary screen, BH1578 luxS cqsA deficient, single point (AID 588436)
Conditions: V. cholerae BH1578 lux reporter, luminescence, 6 h, at 18.7 µM
The campaign covered roughly 350,000 compounds. About 550 (0.16%) were called active. Rule as the data show it: active = activation mostly above about 9.7% (no sharp cut-off); inconclusive = no clear call, values can overlap the other calls; inactive = mostly below about 3.7%. The sample as a whole holds a higher share of actives than the screen did.
Give one outcome, nothing more. List: class 1 (active), class 0 (inactive)

>  <compound>
CN(CC(=O)NC1CCCCC1)S(=O)(=O)c1cccc2cccnc12

>  <discrete_label>
class 0

$$$$
>  <compound>
CC(=O)OCC(COC(C)=O)OC(C)=O

>  <discrete_label>
class 0

$$$$
>  <compound>
COc1ccccc1C(=O)NCCn1cc(SCC(=O)NCc2ccco2)c2ccccc21

>  <discrete_label>
class 0

$$$$
>  <compound>
CNc1cncc(-c2cccc(C(=O)N3CCOCC3)c2)n1

>  <discrete_label>
class 0

$$$$
>  <compound>
CC(C)c1ccc(NC(=O)CCN2C(=O)c3ccc([N+](=O)[O-])cc3C2=O)cc1

>  <discrete_label>
class 0

$$$$

Please let me know the test result on file for CCC(=O)N1c2ccc(S(=O)(=O)NCc3ccco3)cc2CC1C (stereo not drawn) . class 0

Answer briefly: the call reported for `c1ccc(Cc2cc[n+](Cc3ccccc3)cc2)cc1` in this assay. class 0

Give the logged outcome of this assay for the following compound: `Cc1cccc(CN2CCC(n3nccc3NC(=O)c3ccccc3C)CC2)n1` class 0

Status in this test for `Cc1onc(-c2ccccc2)c1C(=O)N1CCN(S(=O)(=O)c2ccccc2C(F)(F)F)CC1` ? class 0

In this assay, the call recorded for `COc1ccc(-c2cc(C)nc3nc(N)nn23)cc1` was what? class 0

Which outcome was assigned to `N#Cc1c(C(F)(F)F)cc(-c2cccs2)nc1N1CCCCC1` in this test? class 0

How did this test come out for `CCN(CC)S(=O)(=O)c1ccc2c3c(cccc13)C(=O)S2` ? class 0

Reference source: PubChem BioAssay AID588436
